Provenance of the data: the NIST ThermoML archive (doi:10.1016/j.jct.2013.10.038)

- Protocol: activity coefficient (dimensionless); of the first substance listed, at infinite dilution; xn = mol fraction of the nth substance listed
- Assay setup: 343.15 K; 101 kPa; Liquid; Chromatography; x1 = 0
Recorded endpoint: activity coefficient

Working through the 5 compounds below one at a time, give activity coefficient for each.
1. Cc1ccccc1 [toluene] + CCCCCCn1cc[n+](C)c1.O=C([O-])C(F)(F)F
2. C1CCOC1 [tetrahydrofuran] + CCCCCCn1cc[n+](C)c1.O=C([O-])C(F)(F)F
3. C=Cc1ccccc1 [styrene] + CCCCCCn1cc[n+](C)c1.O=C([O-])C(F)(F)F
4. Cc1ccc(C)cc1 [1,4-dimethylbenzene] + CCCCCCn1cc[n+](C)c1.O=C([O-])C(F)(F)F
5. CCOC(C)=O [ethyl acetate] + CCCCCCn1cc[n+](C)c1.O=C([O-])C(F)(F)F

Ans.
[3.14, 2.02, 2.61, 4.32, 3.12]

---

- Protocol: activity coefficient (dimensionless); of the first substance listed, at infinite dilution; xn = mol fraction of the nth substance listed
- Assay setup: 333.15 K; 101 kPa; Liquid; Chromatography; x1 = 0
Task for the reader: assign each of the following compounds its reported activity coefficient.
One number for each entry.

Qu. Reported activity coefficient, compound CCOC(C)=O [ethyl acetate] + CCCCCCn1cc[n+](C)c1.O=C([O-])C(F)(F)F : ____
Ans. 3.02

Qu. Record request: activity coefficient value, item ClCCl [dichloromethane] + CCCCCCn1cc[n+](C)c1.O=C([O-])C(F)(F)F
Ans. 0.68

Qu. # input compound: Cc1ccc(C)cc1 [1,4-dimethylbenzene] + CCCCCCn1cc[n+](C)c1.O=C([O-])C(F)(F)F ; wanted: its activity coefficient
Ans. 4.29

Qu. For the compound ClC(Cl)(Cl)Cl [tetrachloromethane] + CCCCCCn1cc[n+](C)c1.O=C([O-])C(F)(F)F , what activity coefficient is on record?
Ans. 0.91

Qu. Look up activity coefficient: CCc1ccccc1 [ethylbenzene] + CCCCCCn1cc[n+](C)c1.O=C([O-])C(F)(F)F
Ans. 4.25

Qu. What activity coefficient value was documented for this compound, CC#N [acetonitrile] + CCCCCCn1cc[n+](C)c1.O=C([O-])C(F)(F)F ?
Ans. 1.16

Qu. Name the recorded activity coefficient for ClC(Cl)Cl [trichloromethane] + CCCCCCn1cc[n+](C)c1.O=C([O-])C(F)(F)F .
Ans. 0.3

Qu. Reported activity coefficient for Cc1ccccc1 [toluene] + CCCCCCn1cc[n+](C)c1.O=C([O-])C(F)(F)F : what is it?
Ans. 3.1

Qu. Need activity coefficient of ClCCCl [1,2-dichloroethane] + CCCCCCn1cc[n+](C)c1.O=C([O-])C(F)(F)F , thanks.
Ans. 1.1

Qu. Fill in the blank: the reported activity coefficient of C1COCCO1 [1,4-dioxane] + CCCCCCn1cc[n+](C)c1.O=C([O-])C(F)(F)F is ____.
Ans. 1.94

Each compound below has a reported value. Please supply its activity coefficient.
1. c1ccccc1 [benzene] + CCCCCCn1cc[n+](C)c1.O=C([O-])C(F)(F)F
2. CCCO [propan-1-ol] + CCCCCCn1cc[n+](C)c1.O=C([O-])C(F)(F)F

Ans.
1. 2.1
2. 0.26

List activity coefficient for every entry below, keeping the order given.
1. CC(C)CO [2-methyl-1-propanol] + CCCCCCn1cc[n+](C)c1.O=C([O-])C(F)(F)F
2. CO [methanol] + CCCCCCn1cc[n+](C)c1.O=C([O-])C(F)(F)F
3. Cc1cccc(C)c1 [1,3-dimethylbenzene] + CCCCCCn1cc[n+](C)c1.O=C([O-])C(F)(F)F
4. CC(C)=O [acetone] + CCCCCCn1cc[n+](C)c1.O=C([O-])C(F)(F)F
5. Cc1ccccc1C [1,2-dimethylbenzene] + CCCCCCn1cc[n+](C)c1.O=C([O-])C(F)(F)F
6. C1CCOC1 [tetrahydrofuran] + CCCCCCn1cc[n+](C)c1.O=C([O-])C(F)(F)F

Ans.
[0.3, 0.13, 4.39, 1.68, 3.98, 2]

Below is a list of compounds. For each, state its recorded activity coefficient.
1. Clc1ccccc1 [chlorobenzene] + CCCCCCn1cc[n+](C)c1.O=C([O-])C(F)(F)F
2. CC(C)O [propan-2-ol] + CCCCCCn1cc[n+](C)c1.O=C([O-])C(F)(F)F
3. C=Cc1ccccc1 [styrene] + CCCCCCn1cc[n+](C)c1.O=C([O-])C(F)(F)F
4. CCO [ethanol] + CCCCCCn1cc[n+](C)c1.O=C([O-])C(F)(F)F
5. Brc1ccccc1 [bromobenzene] + CCCCCCn1cc[n+](C)c1.O=C([O-])C(F)(F)F

Ans.
1: 2.22; 2: 0.38; 3: 2.53; 4: 0.23; 5: 2.29
